# Test details: Pharmacokinetics of Compound 1 solid forms in plasma following single PO administration (IV bolus reference) in male Sprague Dawley rats
# Format: in vivo
# Condition context: male, Sprague Dawley, rat, plasma, po, 11.7 mg/kg, oral gavage 11.7 mg/kg, male Sprague Dawley rats; vs IV AUCinf, dose-corrected; read-out: Absolute % F
Readout label: bioavailability (%)
API: value field is a number in %; no unit string.

Input C[C@@H](Nc1nc(N[C@H](C)C(F)(F)F)nc(-c2cccc(Cl)n2)n1)C(F)(F)F [Citrate Cocrystal Type A] . Output bioavailability: 104

----------
# Test details: Pharmacokinetics of Compound 1 solid forms in plasma following single PO administration (IV bolus reference) in male Sprague Dawley rats
# Format: in vivo
# Condition context: male, Sprague Dawley, rat, plasma, po, 11.7 mg/kg, oral gavage 11.7 mg/kg (as free Compound 1), male Sprague Dawley rats, fasted
Readout label: AUC(0-inf) (ng·h/mL)
Enter your answer as a number in ng·h/mL; do not include the unit.

Field AUC(0-inf) (entry C[C@@H](Nc1nc(N[C@H](C)C(F)(F)F)nc(-c2cccc(Cl)n2)n1)C(F)(F)F [Citrate Cocrystal Type A] ) reads 58200
